test: self-splicing fitness, log relative to wild type (ln ratio); higher = more splicing; Tetrahymena group I intron in knt gene, E. coli kanamycin selection, DiMSum; sequences stand for … in CUCUCU…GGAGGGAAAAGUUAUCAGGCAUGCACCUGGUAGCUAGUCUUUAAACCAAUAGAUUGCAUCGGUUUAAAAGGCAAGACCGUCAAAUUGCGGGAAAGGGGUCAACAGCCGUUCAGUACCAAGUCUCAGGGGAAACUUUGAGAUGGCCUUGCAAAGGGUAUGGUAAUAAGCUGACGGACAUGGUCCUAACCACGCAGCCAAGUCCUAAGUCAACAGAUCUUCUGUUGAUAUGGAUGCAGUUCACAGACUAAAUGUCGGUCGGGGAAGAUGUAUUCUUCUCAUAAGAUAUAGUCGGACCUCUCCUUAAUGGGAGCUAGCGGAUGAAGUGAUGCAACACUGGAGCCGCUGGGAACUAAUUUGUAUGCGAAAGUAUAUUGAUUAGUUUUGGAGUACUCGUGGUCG; details: 30 °C;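 further: selection with 25 µg/mL kanamycin versus none on LB agar overnight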
Lab note: anything with self-splicing fitness (ln) at or over -2 counts as criterion met; the rest go in criterion not met.

{"polymer_sequence": "UAACAGCAAUAUUACGUGAG", "assigned_label": "criterion met"}
{"polymer_sequence": "UAGGAGCAAUAUUACGAGUG", "assigned_label": "criterion not met"}
{"polymer_sequence": "UCCAAGCAAUAUUACGAUGA", "assigned_label": "criterion met"}

Prompt: Hi, just wondering whether `CUGUAGCAAUAUUACGUUGU` shows self-splicing fitness (ln) of -2 or higher.
Completion: criterion not met

Prompt: Hi, just wondering whether `CGCCAGCAAUAUUACGUCCG` shows self-splicing fitness (ln) of -2 or higher.
Completion: criterion met

Prompt: Hi, just wondering whether `ACUAAGCAAUAUUACGAGCA` shows self-splicing fitness (ln) of -2 or higher.
Completion: criterion met

Prompt: Hi, just wondering whether `UUCAAGCAAUAUUACGUGGA` shows self-splicing fitness (ln) of -2 or higher.
Completion: criterion not met

Prompt: Hi, just wondering whether `GCAAAGCAAUAUUACGCCCC` shows self-splicing fitness (ln) of -2 or higher.
Completion: criterion met

Prompt: Hi, just wondering whether `AUCAAGCAAUAUUACGACUU` shows self-splicing fitness (ln) of -2 or higher.
Completion: criterion met

Prompt: Hi, just wondering whether `ACGCAGCAAUAUUACGGUCC` shows self-splicing fitness (ln) of -2 or higher.
Completion: criterion not met

Prompt: Hi, just wondering whether `AGUUAGCAAUAUUACGCGUA` shows self-splicing fitness (ln) of -2 or higher.
Completion: criterion met

Prompt: Hi, just wondering whether `GACGAGCAAUAUUACGUAAU` shows self-splicing fitness (ln) of -2 or higher.
Completion: criterion not met

Prompt: Hi, just wondering whether `CUUAAGCAAUAUUACGGUCU` shows self-splicing fitness (ln) of -2 or higher.
Completion: criterion not met

Prompt: Hi, just wondering whether `CAUAAGCAAUAUUACGAGCU` shows self-splicing fitness (ln) of -2 or higher.
Completion: criterion not met

Prompt: Hi, just wondering whether `UUUAAGCAAUAUUACGGUAC` shows self-splicing fitness (ln) of -2 or higher.
Completion: criterion not met

Prompt: Hi, just wondering whether `CAAUAGCAAUAUUACGUAGU` shows self-splicing fitness (ln) of -2 or higher.
Completion: criterion not met
